System: BT-549 breast
Assay: NCI-60 one-dose screen, 48 h
Details: 10 µM unless noted
The panel holds about 83,000 compounds, 20% with a hit somewhere; the sample as a whole holds those more often. Active and inactive are the calls of the source. The calls were made as follows: active = growth percent below 10; inactive = the rest.
Could you please pick one outcome from this set? active, inactive

Record excerpt, results attached:
compound	classification
O=C(CCc1nc2sc3c(c2c(=O)[nH]1)CCC3)NCc1cn(-c2ccccc2)nc1-c1ccccc1	inactive
CNC(=O)c1cc(Oc2ccc(NC(=O)c3[nH]c(SC)nc3-c3ccc(F)cc3)cc2)ccn1	inactive
O=C1c2ccccc2C2N1CCC1CCc3ccccc3N12 (stereo not drawn)	inactive
COc1c(B(O)O)cccc1-c1nc2ccc3[nH]ncc3c2c2c1CCCC2	active
COC(=O)CNS(=O)(=O)c1ccc2c(c1)Cc1cc(S(=O)(=O)NCC(=O)OC)ccc1-2	inactive
O=c1[nH]c2cc(Cl)c(Cl)cc2o1	inactive
C=CCn1c(SCC(=O)Nc2ccc(/C(C)=N\O)cc2)nnc1-c1cc(-c2ccc(Cl)cc2)nc2ccccc12	inactive
COc1cc(C)c2c(=O)c3c(oc2c1)C(=O)c1c(O)c(OC)cc(O)c1C3=O	inactive
COc1cc(C2CC(c3cccc(Nc4ccnc5cc(Cl)ccc45)c3)=NN2c2ccc(Cl)cc2)cc(OC)c1OC (stereo not drawn)	inactive
C=C1NC(=O)C(C(C)CC)NC(=O)C2CSCC(NC(=O)CCC(=O)O)C(=O)NC(Cc3ccccc3)C(=O)NC(C)C(=O)NC(CC(C)CC)C(=O)NC(C(=O)NC(Cc3ccccc3)C(=O)N3CCCC3C(=O)N2)C(C)OC(=O)C(CO)NC(=O)C(C(O)COC)N(C)C(=O)C(C(C)C)NC(=O)C(CC(C)CC)NC1=O (stereo not drawn)	active

Request: // param item: Cc1ccc(Nc2nc(NCCO)c3ccccc3n2)cc1C ; yields the recorded call
Result: inactive

Request: Then this compound: C=CCn1c(C)nc2cc(Nc3nc(Nc4ccc5nc(C)n(CC=C)c5c4)nc4ccccc34)ccc21
Result: inactive

Request: Then this compound: CC(=O)c1ccc(-n2c(-c3cc(-c4ccsc4)n[nH]3)n[nH]c2=S)cc1
Result: inactive

----------
Parameter: growth. Scope: all listed entries.
System: K-562 leukemia
Assay: NCI-60 one-dose screen, 48 h (100 = growth as untreated, 0 = no growth, -100 = all killed)
Details: 10 µM unless noted
Compounds without any hit were thinned out: in the full panel of roughly 83,000, 20% have a hit.
Write it as a number; the unit % goes unstated.

Some compounds with known growth results, for comparison:
structure-as-smiles	system-tested	growth, %
CC(C)c1[nH]ncc1-c1nc2ccc3[nH]ncc3c2c2c1CCCC2	K-562 leukemia	42
O=c1[nH]cnc2nc[nH]c12	K-562 leukemia	49.3
O=[N+]([O-])c1cc(F)c2cccnc2c1O	K-562 leukemia	109
CCCCN(CCCC)CCC(=O)c1ccc(OC)c2ccccc12	K-562 leukemia	67.1

# input for lookup
Request: Requested field: growth. Item: NC(N)=N/N=C/c1ccccc1
Result: 96.1

----------
Test system: MDA-MB-435 melanoma
Assay: NCI-60 one-dose screen, 48 h
Conditions: 10 µM unless noted
The panel holds about 83,000 compounds, 20% with a hit somewhere; the sample as a whole holds those more often. Activity calls are given as the source filed them. The calls were made as follows: active = growth percent below 10; inactive = the rest.
Could you please pick one outcome from this set? active, inactive

Request: // param item: Cc1ccccc1N1C(c2ccccc2)=NNC12C=CC(=O)c1c(O)cccc12 (configuration not stated) ; yields the recorded call
Result: active

Request: Then this compound: O=C1C(Cl)=C(N/N=c2/[nH][nH]/c(=N/NC3=C(Cl)C(=O)c4ccccc4C3=O)c3ccccc23)C(=O)c2ccccc21
Result: inactive

Request: Then this compound: C=C1NC(=O)C(C(C)CC)NC(=O)C2CSCC(NC(=O)CCC(=O)O)C(=O)NC(Cc3ccccc3)C(=O)NC(C)C(=O)NC(CC(C)CC)C(=O)NC(C(=O)NC(Cc3ccccc3)C(=O)N3CCCC3C(=O)N2)C(C)OC(=O)C(CO)NC(=O)C(C(O)COC)N(C)C(=O)C(C(C)C)NC(=O)C(CC(C)CC)NC1=O (configuration not stated)
Result: active

Request: Then this compound: O=NN(CC(=O)NNc1ccccc1)CC(=O)NNc1ccccc1
Result: inactive

Request: Then this compound: Cc1ccc(NC(=O)c2[nH]c(SCCN(C)C)nc2-c2ccc(F)cc2)cc1C#Cc1cnc2cccnn12
Result: inactive

These entries and their values trace back to PubChem BioAssay (NCI).
